Overview of recorded EC50 for various molecules
- Tested on: p21 induction in HCT116 cells
- Protocol Notes: p21 induction in HCT116 cells
- Format: cell-based
- Condition Label: Homo sapiens, HCT-116, 24 h, HCT116 cells, 24 h compound incubation; read-out: P21_EC50
- Experimental: The colon carcinoma cell line HCT116 was obtained from ATCC and cultured in growth medium consisting of Mccoy's 5A Medium (Gibco 16600108) supplemented with 10% FBS (Transgene FS201-02) and 100 units/mL penicillin-streptomycin (Gibco 15140122) and maintained at 37° C. under 5% CO2. […] Finally, the p21 signal and the GAPDH signal were quantified using a LI-COR Odyssey CLx Imager machine reading at 800 nm and 700 nm, respectively. […]

Example entries begin here.
molecule=CCc1c(N2CCN(C(=O)c3ncnc(C)c3O)[C@H]3CC[C@@H]32)c(=O)c2nc(N(C)[C@H]3CC[C@@H](O)C3)cnc2n1CC(=O)Nc1ccc(C(F)(F)F)cc1Cl endpoint_name=EC50 result="< 500 nM"
molecule=CCc1c(N2CCN(C(=O)c3ncnc(C)c3O)CC2)c(=O)c2nc3cc(C)oc3nc2n1CC(=O)Nc1ccc(C(F)(F)F)cc1Cl endpoint_name=EC50 result="< 500 nM"
molecule=CCc1c(N2CCN(C(=O)c3ncnc(C)c3O)C(C)(C)C2)c(=O)c2nc(N(C)C)cnc2n1CC(=O)Nc1ccc(C(F)(F)F)cc1Cl endpoint_name=EC50 result="500 to 2000 nM"
molecule=CCc1c(N2CCN(C(=O)c3ncnc(C)c3O)CC2)c(=O)c2nc(C3CCC3)cnc2n1CC(=O)Nc1ccc(C(F)(F)F)cc1Cl endpoint_name=EC50 result="500 to 2000 nM"
molecule=CCc1c(N2CCN(C(=O)c3ncnc(C)c3O)CC2)c(=O)c2nc(N(C)C)cnc2n1CC(=O)Nc1ccc(S(F)(F)(F)(F)F)cc1Cl endpoint_name=EC50 result="< 500 nM"

p21 induction in HCT116 cells EC50 of `CCc1c(N2CCN(C(=O)c3ncnc(C)c3O)CC2)c(=O)c2nc(N3CCC34CCC4)cnc2n1CC(=O)Nc1ccc(C(F)(F)F)cc1Cl` is < 500 nM

p21 induction in HCT116 cells EC50 of `CCc1c(N2CCN(C(=O)c3ncnc(C)c3O)CC2)c(=O)c2nc(C3CC3)cnc2n1CC(=O)Nc1ccc(C(F)(F)F)cc1Cl` is 2000 to 5000 nM

p21 induction in HCT116 cells EC50 of `CCc1c(N2CC3COCC(C2)N3C(=O)c2ncnc(C)c2O)c(=O)c2nc(N(C)C)cnc2n1CC(=O)Nc1ccc(C(F)(F)F)cc1Cl` is > 5000 nM

p21 induction in HCT116 cells EC50 of CCc1c(N2CCN(C(=O)c3ncnc(C)c3O)CC2)c(=O)c2nc(N3CCC4CC43)cnc2n1CC(=O)Nc1ccc(C(F)(F)F)cc1Cl (stereo not shown) is 500 to 2000 nM

p21 induction in HCT116 cells EC50 of `CCc1c(N2CCN(C(=O)c3nccc(Cl)c3O)CC2)c(=O)c2nc(N(C)C)cnc2n1CC(=O)Nc1ccc(C(F)(F)F)cc1Cl` is 500 to 2000 nM

p21 induction in HCT116 cells EC50 of `CCc1c(N2CCN(C(=O)c3ncnc(C)c3O)[C@H]3CC[C@@H]32)c(=O)c2nc(N(C)[C@@H]3CC[C@H](O)C3)cnc2n1CC(=O)Nc1ccc(C(F)(F)F)cc1Cl` is < 500 nM

p21 induction in HCT116 cells EC50 of `CCc1c(N2CCN(C(=O)c3cnn(C)c3)[C@H]3CC[C@@H]32)c(=O)c2nc(N(C)C)cnc2n1CC(=O)Nc1ccc(C(F)(F)F)cc1Cl` is 2000 to 5000 nM

p21 induction in HCT116 cells EC50 of `CCc1c(N2CCN(C(=O)c3ncnc(C)c3O)CC2)c(=O)c2nc(N3CCC(F)(F)C3)cnc2n1CC(=O)Nc1ccc(C(F)(F)F)cc1Cl` is > 5000 nM

p21 induction in HCT116 cells EC50 of `CCc1c(N2CCN(C(=O)c3ncnc(C)c3O)CC2)c(=O)c2nc(/C=C/C(=O)N(C)C)cnc2n1CC(=O)Nc1ccc(C(F)(F)F)cc1Cl` is > 5000 nM

p21 induction in HCT116 cells EC50 of `CCc1c(N2CCN(C(=O)c3ncnc(C)c3O)C[C@@H]2CC)c(=O)c2nc(N(C)C)cnc2n1CC(=O)Nc1ccc(C(F)(F)F)cc1Cl` is 500 to 2000 nM

p21 induction in HCT116 cells EC50 of `CCc1c(N2CCN(C(=O)c3ncc4c(c3O)OCC4)CC2)c(=O)c2ncc(C)nc2n1CC(=O)Nc1ccc(C(F)(F)F)cc1Cl` is > 5000 nM

p21 induction in HCT116 cells EC50 of `CCc1c(N2CCN(C(=O)c3ncnc(C)c3O)CC2)c(=O)c2nc(N3CCC3)cnc2n1CC(=O)Nc1ccc(C(F)(F)F)cc1Cl` is 500 to 2000 nM

p21 induction in HCT116 cells EC50 of `CCc1c(N2CCN(C(=O)c3ncnc(C)c3O)CC2)c(=O)c2nc(N3CCCC34CC4)cnc2n1CC(=O)Nc1ccc(C(F)(F)F)cc1Cl` is 2000 to 5000 nM

p21 induction in HCT116 cells EC50 of `CCc1c(N2CCN(C(=O)c3ncnc(C)c3O)[C@H]3CC[C@@H]32)c(=O)c2cc(N(C)C)cnc2n1CC(=O)Nc1ccc(C(F)(F)F)cc1Cl` is < 500 nM

p21 induction in HCT116 cells EC50 of `CCc1c(N2CCN(C(=O)c3ncnc(C)c3O)[C@H]3CC[C@@H]32)c(=O)c2nc(N[C@H](C)[C@H](C)O)cnc2n1CC(=O)Nc1ccc(C(F)(F)F)cc1Cl` is 500 to 2000 nM
